# measured-on: UniProt:P48450
# assay-info: Compound was evaluated for the inhibition of microsomal 2,3-oxidosqualene cyclase in rat liver microsomes
# Parameters: species or system Microsome
# experimental-setup: read-out: I50
property-name: IC50

Inquiry: What does the record list as IC50 for CC(C)=CCC/C(C)=C/CCC(C)=CCCCN(C)CC/C=C(/C)CCC1OC1(C)C (stereo unspecified) ?
Reply text: > 20 µM

====

# measured-on: Lanosterol synthase (Rattus norvegicus, UniProt P48450)
# Sequence (P48450 whole entry): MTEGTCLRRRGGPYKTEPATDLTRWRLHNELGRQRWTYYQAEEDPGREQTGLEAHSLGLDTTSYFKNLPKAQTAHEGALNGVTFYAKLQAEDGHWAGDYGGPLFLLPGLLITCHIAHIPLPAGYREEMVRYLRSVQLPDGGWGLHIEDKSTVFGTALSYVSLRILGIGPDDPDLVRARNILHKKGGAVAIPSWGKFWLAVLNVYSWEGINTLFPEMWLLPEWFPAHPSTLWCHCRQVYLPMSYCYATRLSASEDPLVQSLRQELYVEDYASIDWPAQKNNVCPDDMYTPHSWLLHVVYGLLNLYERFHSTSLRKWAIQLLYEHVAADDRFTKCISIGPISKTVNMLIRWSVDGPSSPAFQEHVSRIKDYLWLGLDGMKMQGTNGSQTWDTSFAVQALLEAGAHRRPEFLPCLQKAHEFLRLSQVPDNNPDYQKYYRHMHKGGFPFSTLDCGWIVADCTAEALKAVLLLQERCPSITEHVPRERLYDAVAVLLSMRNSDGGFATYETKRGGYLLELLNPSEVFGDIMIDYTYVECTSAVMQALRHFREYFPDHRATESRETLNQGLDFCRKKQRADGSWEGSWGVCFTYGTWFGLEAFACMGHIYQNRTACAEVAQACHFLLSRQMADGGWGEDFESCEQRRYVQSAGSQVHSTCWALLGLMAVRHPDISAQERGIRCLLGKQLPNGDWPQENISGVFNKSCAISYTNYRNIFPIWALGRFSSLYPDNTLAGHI
# assay-info: Compound was evaluated for the inhibition of microsomal 2,3-oxidosqualene-lanosterol cyclase in rat liver microsomes
# Parameters: species or system Microsome
# experimental-setup: read-out: I50
property-name: pIC50
Entry type: numeric. Quantity: pIC50, the -log10 of concentration in molar units.

Inquiry: What does the record list as pIC50 for CC(C)=CCC/C(C)=C/CC/C(C)=C/CCCN(C)CC/C=C(\C)CCC1OC1(C)C (stereo unspecified) ?
Reply text: 5.32

Data credit: ChEMBL document CHEMBL1125522
